Would you mind telling me the reported Km of each entry?
Substrate: C[S+](CC[C@H](N)C(=O)[O-])C[C@H]1O[C@@H](n2cnc3c(N)ncnc32)[C@H](O)[C@@H]1O
Measurement description: Discontinuous HPLC assay of 5′-FDA formation with SAM varied at 200 mM fluoride
Type: biochemical
Particulars: pH 7.8; 25.0 °C
Give bare numbers, in µM.

S158A (Streptantibioticus cattleyicolor; S158A) (protein) AANSTRRPIIAFMSDLGTTDDSVAQCKGLMYSICPDVTVVDVCHSMTPWDVEEGARYIVDLPRFFPEGTVFATTTYPATGTTTRSVAVRIKQAAKGGARGQWAGSGAGFERAEGSYIYIAPNNGLLTTVLEEHGYLEAYEVTSPKVIPEQPEPTFYAREMVAIPSAHLAAGFPLSEVGRPLEDHEIVRFNRPAVEQDGEALVGVVSAIDHPFGNVWTNIHRTDLEKAGIGYGARLRLTLDGVLPFEAPLTPTFADAGEIGNIAIYLNSRGYLSIARNAASLAYPYHLKEGMSARVEAR	9.2
S158G (Streptantibioticus cattleyicolor; S158G) (protein) AANSTRRPIIAFMSDLGTTDDSVAQCKGLMYSICPDVTVVDVCHSMTPWDVEEGARYIVDLPRFFPEGTVFATTTYPATGTTTRSVAVRIKQAAKGGARGQWAGSGAGFERAEGSYIYIAPNNGLLTTVLEEHGYLEAYEVTSPKVIPEQPEPTFYGREMVAIPSAHLAAGFPLSEVGRPLEDHEIVRFNRPAVEQDGEALVGVVSAIDHPFGNVWTNIHRTDLEKAGIGYGARLRLTLDGVLPFEAPLTPTFADAGEIGNIAIYLNSRGYLSIARNAASLAYPYHLKEGMSARVEAR	0.8

For reference, reported Km for T80A (Streptantibioticus cattleyicolor; T80A) (protein) AANSTRRPIIAFMSDLGTTDDSVAQCKGLMYSICPDVTVVDVCHSMTPWDVEEGARYIVDLPRFFPEGTVFATTTYPAAGTTTRSVAVRIKQAAKGGARGQWAGSGAGFERAEGSYIYIAPNNGLLTTVLEEHGYLEAYEVTSPKVIPEQPEPTFYSREMVAIPSAHLAAGFPLSEVGRPLEDHEIVRFNRPAVEQDGEALVGVVSAIDHPFGNVWTNIHRTDLEKAGIGYGARLRLTLDGVLPFEAPLTPTFADAGEIGNIAIYLNSRGYLSIARNAASLAYPYHLKEGMSARVEAR stands at 3.0

The values you see were collected from paper PMC3326528.
